biological target: SARS-CoV-2 PLpro (Severe acute respiratory syndrome coronavirus 2)
readout.type: IC50

[Q] Requested read-out: IC50. Entry: CNC(=O)C[C@@H](NC(=O)c1cc(N(C)C2CNC2)ccc1C)c1cccc2ccccc12 [DY2-116]
[A] > 100 µM

====

pKd: −log10 of the molar value.
readout.type: pKd

[Q] API: value(readout= pKd, system= UniProtKB P0DTD1, query= CNC(=O)C[C@@H](NC(=O)c1cc(N(C)C2CNC2)ccc1C)c1cccc2ccccc12 [DY2-116] )
[A] < 3.00
